Test system: Saccharomyces cerevisiae
Test: protein stability index of tFT-peptide fusion (C-terminal peptide) (PSI (0-1 scale)); higher = more stable (slower turnover)
Conditions: genetic background: cdc34-1; temperature: 37 C
Listed here are sequences together with their documented protein stability index.
// keep it numeric: no unit symbol after the value

# Sequence chain, protein stability index
records = [
    ("VSCFIVSFWVFL", 0.389),
    ("IFLCRNGAVFIC", 0.398),
    ("PLCLFPPLLVFL", 0.492),
]

For Saccharomyces cerevisiae, provide protein stability index of LLGSRFVLIRSL please.
0.488

----------
System: Saccharomyces cerevisiae
Assay: protein stability index of tFT-peptide fusion (C-terminal peptide) (PSI (0-1 scale)); higher = more stable (slower turnover)
Conditions: genetic background: das1 deletion; temperature: 30 C
Assay readout: protein stability index
// keep it numeric: no unit symbol after the value

Here is how some sequences turned out for protein stability index.
# Sequence chain, protein stability index
measured = [
    ("SWTAYSYQWVFF", 0.497),
    ("VQLFCLRREMII", 0.503),
    ("LFIRSFLFFSHF", 0.498),
    ("VLAYFCYVVFVI", 0.27),
    ("FLLAIVRGVWLA", 0.257),
    ("FIRLFLVSFFIS", 0.375),
    ("FRFYCGLVIANV", 0.385),
    ("FLFWVLLVGCSF", 0.245),
]

Turning to the following sequence.
For Saccharomyces cerevisiae, provide protein stability index of NCMGLLMPLLIT please.
0.378

----------
Test system: Saccharomyces cerevisiae
Assay: protein stability index of tFT-peptide fusion (C-terminal peptide) (PSI (0-1 scale)); higher = more stable (slower turnover)
Conditions: genetic background: wild type; temperature: 30 C
Assay readout: protein stability index
// keep it numeric: no unit symbol after the value

Here is how some sequences turned out for protein stability index.
# Sequence chain, protein stability index
rows = [
    ("PGDTLIEVIDLT [WSS1 C-terminal 12 aa]", 0.711),
    ("MSNSNSVCCTLM [STE18 C-terminal 12 aa]", 0.703),
    ("LSAIVFLGTSSH [AVT5 C-terminal 12 aa]", 0.704),
    ("LLLKVEKKGSKK [HTZ1 C-terminal 12 aa]", 0.716),
]

Give its protein stability index value. Item: EEWYTSNHDSLA [PRP18 C-terminal 12 aa]
0.698

Now the same for LLRNGDIDTITK [COG3 C-terminal 12 aa]
0.68

Now the same for SRFRTNRLKGDQ [YNL042W-B C-terminal 12 aa]
0.689

Now the same for VWADILNKLGKD [ADK1 C-terminal 12 aa]
0.719

Now the same for TAAQILKKQNRL [YDR541C C-terminal 12 aa]
0.704

Now the same for KGVVTLEEILKA [COQ11 C-terminal 12 aa]
0.712

----------
System: Saccharomyces cerevisiae
Assay: protein stability index of tFT-peptide fusion (C-terminal peptide) (PSI (0-1 scale)); higher = more stable (slower turnover)
Conditions: genetic background: das1 deletion; temperature: 30 C
Assay readout: protein stability index
// keep it numeric: no unit symbol after the value

# Sequence chain, protein stability index
rows = [
    ("VGDIVWKIRNIN [TTI1 C-terminal 12 aa]", 0.689),
    ("KGVVTLEEILKA [COQ11 C-terminal 12 aa]", 0.712),
    ("ALKKAARQVKKE [IFA38 C-terminal 12 aa]", 0.71),
    ("LAKGGADVKPKK [RDL2 C-terminal 12 aa]", 0.707),
]

Give its protein stability index value. Item: FGDCHLENSHLH [SPO75 C-terminal 12 aa]
0.704

Now the same for LLNDIKRRNMGR [MET28 C-terminal 12 aa]
0.683

Now the same for GIYSAVIDQTGF [RRP9 C-terminal 12 aa]
0.705

Now the same for CLREFMNGQRYI [DIA4 C-terminal 12 aa]
0.702

Now the same for FKVDDNVDFPSA [RPN2 C-terminal 12 aa]
0.681

Now the same for KARLTEEQHRHE [CWC21 C-terminal 12 aa]
0.705

Now the same for KVGNDHMELKKE [TFG1 C-terminal 12 aa]
0.699

----------
Tested on: Saccharomyces cerevisiae
Test: protein stability index of tFT-peptide fusion (C-terminal peptide) (PSI (0-1 scale)); higher = more stable (slower turnover)
Conditions: genetic background: cdc53-1; temperature: 37 C
Each entry falls in a class defined on protein stability index; the bands are 1: < 0.4; 2: ≥ 0.4 and < 0.6; 3: ≥ 0.6

Answered examples (2):
# Sequence chain, Class
records = [
    ("RVLSLLGCFVVF", 2),
    ("GFVCFIHLFLCF", 1),
]

Note: place this sequence into its band. Item: AIDLCIAVVGMV
2

Now the same for GVVCCGFFFLVV
2

Now the same for FVFLVLGPYAMF
2

Now the same for EWVWVVFSCVSW
2

Now the same for SFRIWLFRFFFV
3

----------
Tested on: Saccharomyces cerevisiae
Test: protein stability index of tFT-peptide fusion (C-terminal peptide) (PSI (0-1 scale)); higher = more stable (slower turnover)
Settings: genetic background: wild type; temperature: 30 C
Listed here are sequences together with their documented protein stability index.

Here is how some sequences turned out for protein stability index.
# Sequence chain, Target desc, protein stability index
records = [
    ("VRELGVGGWRRQ", "Saccharomyces cerevisiae", 0.129),
    ("CYSLLFVSVILF", "Saccharomyces cerevisiae", 0.138),
    ("LSRSAGVGVWVG", "Saccharomyces cerevisiae", 0.283),
    ("LVRGGLTNLFLF", "Saccharomyces cerevisiae", 0.194),
    ("SGLVHVLILGAC", "Saccharomyces cerevisiae", 0.338),
    ("WQVPYQRLAILF", "Saccharomyces cerevisiae", 0.247),
    ("SYVRLDLFFFLG", "Saccharomyces cerevisiae", 0.472),
    ("QWRSWSFATLVT", "Saccharomyces cerevisiae", 0.258),
    ("RHAHPLTAQLPL", "Saccharomyces cerevisiae", 0.671),
    ("VIWVLGALASWG", "Saccharomyces cerevisiae", 0.479),
]

Give its protein stability index value. Item: VAVYVGVGVSLG
0.33

----------
Tested on: Saccharomyces cerevisiae
Experiment: protein stability index of tFT-peptide fusion (C-terminal peptide) (PSI (0-1 scale)); higher = more stable (slower turnover)
Details: genetic background: wild type; temperature: 37 C
So basically: protein stability index at 0.5 or higher? That is t. Lower than 0.5? That is f.

# Sequence chain, Class
data = [
    ("RGCFVLRKTHLL", "f"),
    ("CLVFGFLFFIVI", "f"),
    ("VVMASSIIVVAG", "f"),
    ("SRWMWFDWLRRA", "t"),
]

Could you tell me if the measured protein stability index of SWTAYSYQWVFF reaches 0.5 or more?
f

Now the same for ETCFSFVCSVQC
f

----------
Tested on: Saccharomyces cerevisiae
Experiment: protein stability index of tFT-peptide fusion (C-terminal peptide) (PSI (0-1 scale)); higher = more stable (slower turnover)
Conditions: genetic background: wild type; temperature: 30 C
Assay readout: protein stability index
// keep it numeric: no unit symbol after the value

Here is how some sequences turned out for protein stability index.
# Sequence chain, Assay readout, Quantitative result
records = [
    ("SLPSPSPPSHPL", "protein stability index", 0.705),
    ("LTRQCLLPGWGL", "protein stability index", 0.707),
    ("LLSLRSPCSSSR", "protein stability index", 0.697),
    ("MRPSLSDAMMSS", "protein stability index", 0.687),
    ("FRFSSTGRSFVS", "protein stability index", 0.692),
    ("PLPPPPTLSCTQ", "protein stability index", 0.701),
]

Give its protein stability index value. Item: LPPAPLLSLPSL
0.692

Now the same for PRPAPGGSPALT
0.689

Now the same for PLLPSPLIPFSH
0.688

----------
Listed here are sequences together with their documented protein stability index.
Test system: Saccharomyces cerevisiae
Assay: protein stability index of tFT-peptide fusion (C-terminal peptide) (PSI (0-1 scale)); higher = more stable (slower turnover)
Conditions: genetic background: das1 deletion; temperature: 30 C
// keep it numeric: no unit symbol after the value

Here is how some sequences turned out for protein stability index.
# Sequence chain, protein stability index
records = [
    ("VLWSCCGGVRVR", 0.465),
    ("LSLFPFLPSPCP", 0.671),
    ("YKLRAVFVCSVT", 0.507),
    ("VIGFGEVWIRCV", 0.435),
    ("CFFPFLCFVVGA", 0.358),
]

For Saccharomyces cerevisiae, provide protein stability index of PYPSVIFFLHVY please.
0.413

Now the same for EGLCCGAYFLVF
0.584

Now the same for TIYGYEVTRKIG
0.621

Now the same for VAWFFFAYAFFM
0.321

Now the same for LLPFSLLDLLLC
0.58

Now the same for FVSFFRWLLVSI
0.358

Now the same for QILVSYSFLYFF
0.44

Now the same for GVMICLDLLLSV
0.377

Now the same for SRWMWFDWLRRA
0.686

Now the same for RRIKNRRLKQVT
0.666
